test system: Saccharomyces cerevisiae BY4741 SeMeCo community; test: z-score of subpopulation abundance vs DMSO median, subpopulation auxotrophic for LU; higher = larger share of this subpopulation than in DMSO controls; settings: 10 µM; 24 h; SM minimal medium; subpopulation (auxotrophy): LU
Counter-ions that a name gives are not always drawn.
Reported z-score of subpopulation abundance values for a set of compounds
A bare number is all that is needed in reply.

# compound, z-score of subpopulation abundance
measured = [
    ("CCNC(=O)[C@@H]1CCCN1C(=O)[C@H](CCCNC(=N)N)NC(=O)[C@H](CC(C)C)NC(=O)[C@@H](CC(C)C)NC(=O)[C@H](Cc1ccc(O)cc1)NC(=O)[C@H](CO)NC(=O)[C@H](Cc1c[nH]c2ccccc12)NC(=O)[C@H](Cc1c[nH]cn1)NC(=O)[C@@H]1CCC(=O)N1 [Leuprolide Acetate]", -0.03),
    ("CCC(=O)NS(=O)(=O)c1ccc(-c2c(-c3ccccc3)noc2C)cc1 [Parecoxib Sodium]", 0.31),
]

Input: Dear colleague, I am looking for the recorded z-score of subpopulation abundance of the following compound: CNCC[C@H](Oc1cccc2ccccc12)c1cccs1 [Duloxetine]
Output: -0.71

Input: Next: CN1CCC(=C2c3ccccc3C=Cc3ccccc32)CC1 [Cyproheptadine hydrochloride]
Output: 0.02

Input: Same read-out for O=c1ccc2cc(O)c(O)cc2o1 [Esculetin] ?
Output: -7.32

====

tested on: Saccharomyces cerevisiae BY4741 SeMeCo community; assay: z-score of prototroph abundance vs DMSO median; higher = larger share of this subpopulation than in DMSO controls; conditions: 10 µM; 24 h; SM minimal medium; subpopulation (auxotrophy): Prototroph
Counter-ions that a name gives are not always drawn.
Param threshold (-0.8) applies to z-score of prototroph abundance; output Yes when value >= threshold, No when value < threshold.

# molecule, system-name, assigned-category
records = [
    ("CCOc1cc(N)c(Cl)cc1C(=O)NCC1CN(Cc2ccc(F)cc2)CCO1 (stereo unspecified) [Mosapride Citrate]", "Saccharomyces cerevisiae BY4741 SeMeCo community", "No"),
    ("Clc1ccc(CCC(Cn2ccnc2)Sc2c(Cl)cccc2Cl)cc1 (stereo unspecified) [Butoconazole nitrate]", "Saccharomyces cerevisiae BY4741 SeMeCo community", "No"),
    ("C[C@@H](O)[C@H]1C(=O)N2C(C(=O)O)=C(S[C@@H]3CN[C@H](C(=O)N(C)C)C3)[C@H](C)[C@H]12 [Meropenem Trihydrate]", "Saccharomyces cerevisiae BY4741 SeMeCo community", "Yes"),
    ("Nc1c(CC(=O)O)cccc1C(=O)c1ccc(Br)cc1 [Bromfenac Sodium]", "Saccharomyces cerevisiae BY4741 SeMeCo community", "Yes"),
    ("CCCCCCCCCC(=O)N[C@@H](Cc1c[nH]c2ccccc12)C(=O)N[C@H](CC(N)=O)C(=O)N[C@@H](CC(=O)O)C(=O)N[C@@H]1C(=O)NCC(=O)N[C@@H](CCCN)C(=O)N[C@@H](CC(=O)O)C(=O)N[C@H](C)C(=O)N[C@@H](CC(=O)O)C(=O)NCC(=O)N[C@H](CO)C(=O)N[C@@H]([C@H](C)CC(=O)O)C(=O)N[C@@H](CC(=O)c2ccccc2N)C(=O)O[C@@H]1C [Daptomycin]", "Saccharomyces cerevisiae BY4741 SeMeCo community", "No"),
    ("CCN1CCCC1CNC(=O)c1cc(S(=O)(=O)CC)c(N)cc1OC (stereo unspecified) [Amisulpride]", "Saccharomyces cerevisiae BY4741 SeMeCo community", "Yes"),
    ("Nc1ccc(S(=O)(=O)c2ccc(N)cc2)cc1 [Dapson]", "Saccharomyces cerevisiae BY4741 SeMeCo community", "Yes"),
    ("CC[C@H]1OC(=O)[C@H](C)[C@@H](O[C@H]2C[C@@](C)(OC)[C@@H](O)[C@H](C)O2)[C@H](C)[C@@H](O[C@@H]2O[C@H](C)C[C@H](N(C)C)[C@H]2O)[C@](C)(O)C[C@@H](C)CN[C@H](C)[C@@H](O)[C@]1(C)O [Azathramycin]", "Saccharomyces cerevisiae BY4741 SeMeCo community", "Yes"),
]

Input: Has O=C(CCCN1CCC(O)(c2ccc(Cl)cc2)CC1)c1ccc(F)cc1 [Haloperidol] a recorded z-score of prototroph abundance greater than or equal to -0.8?
Output: Yes

Input: Can you handle Clc1ccc(C(Cn2ccnc2)OCc2c(Cl)cccc2Cl)c(Cl)c1 (stereo unspecified) [Isoconazole nitrate] next?
Output: No

Input: Now consider CC(C)c1nc(N(C)S(C)(=O)=O)nc(-c2ccc(F)cc2)c1/C=C/[C@@H](O)C[C@@H](O)CC(=O)O [Rosuvastatin] and answer again.
Output: No

Input: // repeat for Cn1nnnc1SCC1=C(C(=O)O)N2C(=O)[C@@H](NC(=O)[C@H](OC=O)c3ccccc3)[C@H]2SC1 [Cefamandole nafate] and report
Output: No

Input: Lookup Nc1cc(C(Cl)=C(Cl)Cl)c(S(N)(=O)=O)cc1S(N)(=O)=O [Clorsulon]
Output: No

Input: Same again, this time with O=C(O)c1cccnc1Nc1cccc(C(F)(F)F)c1 [Niflumic acid]
Output: Yes

Input: Would you kindly repeat that for C#C[C@]1(O)CC[C@H]2[C@@H]3CCC4=CCCC[C@@H]4[C@H]3CC[C@@]21C [Lynestrenol] ?
Output: Yes

Input: Queued: N=C(N)NS(=O)(=O)c1ccc(N)cc1 [Sulfaguanidine]
Output: Yes
